# systemTested: PD-1/PD-L1 interaction (Homo sapiens, UniProt Q9NZQ7)
# Construct: purchased ACRO Biosystems
# measurementNotes: PD-1/PD-L1 blockade assay (pair ELISA)
# Assay type: biochemical
# testConditions: compound at 100 μM
experimentalReadout: blockade of the PD-1/PD-L1 interaction (%)

# molecule, blockade of the PD-1/PD-L1 interaction, %
data = [
    ("O=C(OC[C@H]1O[C@@H](OC(=O)c2cc(O)c(O)c(OC(=O)c3cc(O)c(O)c(O)c3)c2)[C@H](OC(=O)c2cc(O)c(O)c(OC(=O)c3cc(O)c(O)c(O)c3)c2)[C@@H](OC(=O)c2cc(O)c(O)c(OC(=O)c3cc(O)c(O)c(O)c3)c2)[C@@H]1OC(=O)c1cc(O)c(O)c(OC(=O)c2cc(O)c(O)c(O)c2)c1)c1cc(O)c(O)c(OC(=O)c2cc(O)c(O)c(O)c2)c1", 36.9),
]

P = O=c1c(O)c(-c2ccc(O)cc2)oc2cc(O)cc(O)c12
Q = O=c1oc2cc(O)ccc2c2ccc(O)cc12
Between item P and item Q , which reported blockade of the PD-1/PD-L1 interaction is smaller? Refer to your chosen item by its label in the answer.
Q

---

Endpoint: Kd. System: human PD-L1 protein (Homo sapiens). Items follow.
Sequence (Q9NZQ7 19-290): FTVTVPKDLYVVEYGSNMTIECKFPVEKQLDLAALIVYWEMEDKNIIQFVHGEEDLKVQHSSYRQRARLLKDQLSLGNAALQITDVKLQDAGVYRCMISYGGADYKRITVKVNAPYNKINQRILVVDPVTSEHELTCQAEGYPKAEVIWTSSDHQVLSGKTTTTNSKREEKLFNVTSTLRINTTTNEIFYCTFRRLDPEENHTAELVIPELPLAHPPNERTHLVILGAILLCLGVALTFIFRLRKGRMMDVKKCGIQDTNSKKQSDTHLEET
Write the number in µM without appending the unit.

# count of solved cases: 2
# molecule, experimentalReadout, experimentalResult
rows = [
    ("O=c1cc(-c2ccc(O)cc2)oc2cc(O[C@@H]3O[C@H](CO)[C@@H](O)[C@H](O)[C@H]3O)cc(O)c12 [cosmosiin]", "Kd", 3.32),
    ("Oc1ccc(/C=C/c2cc(O)cc(O)c2)cc1 [resveratrol]", "Kd", 37.9),
]

Value wanted: Kd (human PD-L1 protein (Homo sapiens)) of entry O=C(OC[C@H]1O[C@@H](OC(=O)c2cc(O)c(O)c(O)c2)[C@H](OC(=O)c2cc(O)c(O)c(O)c2)[C@@H](OC(=O)c2cc(O)c(O)c(O)c2)[C@@H]1OC(=O)c1cc(O)c(O)c(O)c1)c1cc(O)c(O)c(O)c1 [PGG, pentagalloyl glucose]
2.23

Reference source for all entries: paper PMC9511049
